- PROTOCOL NOTES: CEETOX_H295R_MTT_cell_viability: Viability Assessment in the CeeTox HT-H295R MTT Assay (AID 2283718)
- Protocol: CEETOX_H295R is a cell-based, multiplexed-readout assay that uses H295R, a human adrenal gland cell line, with measurements taken at 48 hours after chemical dosing in a 96-well plate.CEETOX_H295R_MTT_cell_viability is one of 23 assay component(s) measured or calculated from the CEETOX_H295R assay. […]
Active and inactive are the calls of the source. The calls were made as follows: active = hit-call score of the fitted dose curve at least 0.9, where 1 is the maximum; inactive = score below 0.9.
Return exactly one item of active, inactive

Record excerpt, results attached:
S=c1[nH]c2ccccc2s1 | inactive
CCN(CC)CCOc1ccc(C(=C(Cl)c2ccccc2)c2ccccc2)cc1 | inactive
C=CCc1ccc(OC)c(OC)c1 | active

Please share the test call associated with CCC(C)N(C)C(=O)c1cc2ccccc2c(-c2ccccc2Cl)n1 (centres undefined) .
inactive
